Biological target: glucocorticoid receptor (GR) (Homo sapiens, UniProt P04150)
Sequence (P04150 whole entry): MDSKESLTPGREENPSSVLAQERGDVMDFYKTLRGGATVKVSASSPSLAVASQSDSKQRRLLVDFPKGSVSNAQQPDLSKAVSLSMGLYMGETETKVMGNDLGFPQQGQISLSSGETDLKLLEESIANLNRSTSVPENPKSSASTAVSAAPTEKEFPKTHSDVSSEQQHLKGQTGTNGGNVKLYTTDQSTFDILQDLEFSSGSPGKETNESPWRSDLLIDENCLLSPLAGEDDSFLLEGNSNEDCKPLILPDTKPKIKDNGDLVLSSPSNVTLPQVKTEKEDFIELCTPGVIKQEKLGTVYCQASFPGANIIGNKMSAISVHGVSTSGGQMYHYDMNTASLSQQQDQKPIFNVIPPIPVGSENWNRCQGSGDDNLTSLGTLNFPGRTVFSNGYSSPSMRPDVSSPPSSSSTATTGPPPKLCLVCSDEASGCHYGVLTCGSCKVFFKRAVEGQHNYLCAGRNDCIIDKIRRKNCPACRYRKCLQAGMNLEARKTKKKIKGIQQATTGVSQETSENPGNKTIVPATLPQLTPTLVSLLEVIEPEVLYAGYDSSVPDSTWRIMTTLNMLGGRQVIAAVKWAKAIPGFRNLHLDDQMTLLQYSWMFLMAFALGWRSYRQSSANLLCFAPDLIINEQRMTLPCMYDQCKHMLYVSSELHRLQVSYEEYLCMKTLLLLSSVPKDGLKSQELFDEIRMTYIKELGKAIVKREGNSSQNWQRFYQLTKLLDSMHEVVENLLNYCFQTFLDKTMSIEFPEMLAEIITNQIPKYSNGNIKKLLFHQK
Test: Agonist activity at human GR expressed in CHO-K1 cells incubated for 20 hrs by luciferase reporter gene assay relative to dexamethasone
Type: cell-based
Settings: CHO-K1 cells expressing human GR
Measurement name: Emax at 20 h
Reply with the number and its unit after it.

Look up Emax at 20 h for this compound: CC(C)N(C)c1ccc([C@H]2C[C@@]3(C)[C@@H](CC[C@@]3(O)C#CC(C)(C)C)[C@@H]3CCC4=CC(=O)CC[C@@H]4[C@H]32)cc1
2.3%

Also CC#C[C@]1(O)CC[C@H]2[C@@H]3CCC4=CC(=O)CCC4=C3[C@@H](c3ccc(N(C)C)cc3)C[C@@]21C ?
3.1%

Also CC#C[C@]1(O)CC[C@H]2[C@@H]3CCC4=CC(=O)CCC4=C3[C@@H](c3ccc(C(C)C)cc3)C[C@@]21C ?
3.1%

Also CC#C[C@]1(O)CC[C@H]2[C@@H]3CCC4=CC(=O)CCC4=C3[C@@H](C3CCCCC3)C[C@@]21C ?
9.3%

Also CC(C)(C)C#C[C@]1(O)CC[C@H]2[C@@H]3CCC4=CC(=O)CCC4=C3[C@@H](c3ccc(N4CCOCC4)cc3)C[C@@]21C ?
1.5%

Also CN(C)c1c(F)cc([C@H]2C[C@@]3(C)[C@@H](CC[C@@]3(O)C#CC(C)(C)C)[C@@H]3CCC4=CC(=O)CCC4=C32)cc1F ?
1.3%

Also CC#C[C@]1(O)CC[C@H]2[C@@H]3CCC4=CC(=O)CCC4=C3[C@@H](c3cccc(N(C)C)c3)C[C@@]21C ?
1.5%
